protocol details: in vitro
settings: human
Kindly supply the reported CC50 values for the records listed here.

Fill in: CC50 of COCCOC(=O)C1=C(C)NC(C)=C(C(=O)OC/C=C/c2ccccc2)C1c1cccc([N+](=O)[O-])c1 (centres unmarked) is ___
> 10 µM

For O=C(CC1NCCCC1O)Cn1cnc2cc(Br)c(Cl)cc2c1=O (centres unmarked) then?
~5.54 µM

Also Cc1nc(Nc2ncc(C(=O)Nc3c(C)cccc3Cl)s2)cc(N2CCN(CCO)CC2)n1 , if possible.
> 10 µM

Ok, now COC(=O)C[C@](O)(CCCC(C)(C)O)C(=O)O[C@@H]1C(OC)=C[C@]23CCCN2CCc2cc4c(cc2[C@H]13)OCO4
> 10 µM

Can you check CC1(C)CCC(CN2CCN(c3ccc(C(=O)NS(=O)(=O)c4ccc(NCC5CCOCC5)c([N+](=O)[O-])c4)c(Oc4cnc5[nH]ccc5c4)c3)CC2)=C(c2ccc(Cl)cc2)C1 next?
> 10 µM

Measured values drawn from paper PMC8222394 for this set.
